Each recorded value in this set is attributed to ChEMBL document CHEMBL1800075.

test: Drug level in plasma of rat at 30 mg/kg, ip measured after 1 hr
Type: ADME, organism-based
Design: dose 30 mg/kg, route intraperitoneal
measured metric: concentration at 1 h (µM)
Supply the numeric figure in µM, leaving out any unit text.

Supply recorded concentration at 1 h for CCN(CC)C(=O)CCC1(c2ccc(Cl)cc2)c2c(OC)cccc2-c2nccn21 (stereo unspecified) here.
5.1

----------
Papp listing for selected molecules.
test: Passive permeability of the compound
Format: ADME
experimental setup: not told

Sample records with Papp:
| molecule | Papp |
| --- | --- |
| Brc1ccc(C2(CC3CCCC3)c3ccccc3-c3nccn32)cn1 (centres undefined) | 25 ×10⁻⁶ cm/s |
| Brc1ccc(C2(Cc3cccnc3)c3ccccc3-c3nccn32)cc1 (racemic) | 31 ×10⁻⁶ cm/s |
| Brc1ccc(C2(Cc3ccccc3)c3ccccc3-c3nccn32)cc1 (stereo in doubt; 2) | 10 ×10⁻⁶ cm/s |
| N#Cc1ccc(C2(CC3CCCC3)c3ccccc3-c3nccn32)cc1 (centres undefined) | 22 ×10⁻⁶ cm/s |
| N#Cc1ccc(C2(Cc3ccccc3)c3ccccc3-c3nccn32)cc1 (centres undefined) | 33 ×10⁻⁶ cm/s |
| N#Cc1ccc(C2(CC3CCCCC3)c3ccccc3-c3nccn32)cc1 (centres undefined) | 17 ×10⁻⁶ cm/s |
| Clc1ccc(C2(CC3CCOCC3)c3ccccc3-c3nccn32)cc1 (centres undefined) | 31 ×10⁻⁶ cm/s |
| N#Cc1ccccc1CC1(c2ccc(Br)cc2)c2ccccc2-c2nccn21 (racemic) | 17 ×10⁻⁶ cm/s |

Let us examine a further case.
Supply recorded Papp for Brc1ccc(C2(CC3CCOCC3)c3ccccc3-c3nccn32)cc1 (racemic) here.
31 ×10⁻⁶ cm/s

----------
measured target: rat MDR1 (ABCB1, P-glycoprotein) (Rattus norvegicus, UniProt P43245)
Sequence (P43245 whole entry): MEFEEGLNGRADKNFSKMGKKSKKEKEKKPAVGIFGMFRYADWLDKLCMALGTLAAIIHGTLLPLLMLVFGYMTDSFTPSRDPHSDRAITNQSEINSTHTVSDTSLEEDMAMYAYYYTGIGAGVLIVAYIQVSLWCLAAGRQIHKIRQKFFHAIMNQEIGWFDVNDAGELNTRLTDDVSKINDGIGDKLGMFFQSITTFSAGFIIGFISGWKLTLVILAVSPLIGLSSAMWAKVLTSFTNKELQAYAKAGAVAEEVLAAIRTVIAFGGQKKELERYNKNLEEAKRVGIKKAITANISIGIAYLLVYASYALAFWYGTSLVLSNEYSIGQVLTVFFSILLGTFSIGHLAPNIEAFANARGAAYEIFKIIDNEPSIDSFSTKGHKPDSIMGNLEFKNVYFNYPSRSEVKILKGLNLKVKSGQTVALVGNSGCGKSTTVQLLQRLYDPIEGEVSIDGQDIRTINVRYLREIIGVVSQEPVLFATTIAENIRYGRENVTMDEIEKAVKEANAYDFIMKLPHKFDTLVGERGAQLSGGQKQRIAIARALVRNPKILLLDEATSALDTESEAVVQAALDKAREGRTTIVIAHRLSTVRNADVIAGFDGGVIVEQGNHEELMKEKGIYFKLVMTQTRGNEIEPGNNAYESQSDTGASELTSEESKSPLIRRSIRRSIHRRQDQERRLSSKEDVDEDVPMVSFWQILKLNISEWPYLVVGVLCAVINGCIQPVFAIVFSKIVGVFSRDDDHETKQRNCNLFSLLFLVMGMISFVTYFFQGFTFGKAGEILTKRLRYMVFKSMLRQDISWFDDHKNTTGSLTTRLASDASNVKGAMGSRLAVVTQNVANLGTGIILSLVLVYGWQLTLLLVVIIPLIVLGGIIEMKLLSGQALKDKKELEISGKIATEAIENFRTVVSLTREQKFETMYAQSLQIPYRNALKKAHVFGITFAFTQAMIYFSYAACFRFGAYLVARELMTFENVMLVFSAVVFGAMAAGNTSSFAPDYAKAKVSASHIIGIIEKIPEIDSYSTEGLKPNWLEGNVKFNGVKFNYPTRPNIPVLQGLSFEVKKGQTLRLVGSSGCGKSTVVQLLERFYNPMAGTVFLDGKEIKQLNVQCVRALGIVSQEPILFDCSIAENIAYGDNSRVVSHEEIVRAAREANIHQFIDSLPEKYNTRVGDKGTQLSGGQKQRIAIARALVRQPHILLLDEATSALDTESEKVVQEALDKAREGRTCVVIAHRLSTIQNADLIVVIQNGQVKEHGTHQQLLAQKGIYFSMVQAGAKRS
test: Permeability of the compound assessed as rat MDR1-mediated directional transport ratio by cell based assay
experimental setup: not told
Answer NO if efflux ratio is under 2, and YES if it is 2 or more.

Recorded results for 5 molecules are shown here.
| molecule | assigned class |
| --- | --- |
| COc1ccc2c(c1)C(CC1CCOCC1)(c1ccc(Cl)cc1)n1ccnc1-2 (centres undefined) | NO |
| CC(C)N(C(=O)CCC1(c2ccc(Cl)cc2)c2ccccc2-c2nccn21)C(C)C (racemic) | NO |
| Brc1ccc(C2(Cc3cccnc3)c3ccccc3-c3nccn32)cc1 (racemic) | YES |
| COc1ccc2c(c1)C(CCC(=O)N1[C@H](C)CC[C@@H]1C)(c1ccc(Cl)cc1)n1ccnc1-2 (some centres undefined) | YES |
| N#Cc1ccccc1CC1(c2ccc(Br)cc2)c2ccccc2-c2nccn21 (racemic) | NO |

Determine whether this molecule has efflux ratio no lower than 2: Brc1ccc(C2(CC3CCOCC3)c3ccccc3-c3nccn32)cc1 (racemic)
NO

Determine whether this molecule has efflux ratio no lower than 2: N#Cc1ccc(C2(CC3CCCC3)c3ccccc3-c3nccn32)cc1 (centres undefined)
NO

Determine whether this molecule has efflux ratio no lower than 2: CC(C1CCN(C(=O)CCC2(c3ccc(Cl)cc3)c3ccccc3-c3nccn32)CC1)N1CCCC1 (mixture of isomers)
YES

Determine whether this molecule has efflux ratio no lower than 2: Clc1ccc(C2(CC3CCOCC3)c3ccccc3-c3nccn32)cc1 (centres undefined)
NO

Determine whether this molecule has efflux ratio no lower than 2: O=C(CCC1(c2ccc(Cl)cc2)c2ccccc2-c2nccn21)N1C2CCCC1CC2 (mixture of isomers)
NO

Determine whether this molecule has efflux ratio no lower than 2: Brc1ccc(C2(CC3CCCC3)c3ccccc3-c3nccn32)cn1 (centres undefined)
NO

Determine whether this molecule has efflux ratio no lower than 2: CCN(CC)C(=O)CCC1(c2ccc(Cl)cc2)c2ccccc2-c2nccn21 (single isomer, unassigned)
YES

Determine whether this molecule has efflux ratio no lower than 2: N#Cc1ccc(C2(CC3CCCCC3)c3ccccc3-c3nccn32)cc1 (centres undefined)
NO

Determine whether this molecule has efflux ratio no lower than 2: CCC1CCCCN1C(=O)CCC1(c2ccc(Cl)cc2)c2ccccc2-c2nccn21 (mixture of isomers)
NO

Determine whether this molecule has efflux ratio no lower than 2: CCN(C(=O)CCC1(c2ccc(Cl)cc2)c2ccccc2-c2nccn21)C(C)C (racemic)
YES

Determine whether this molecule has efflux ratio no lower than 2: C[C@@H]1CC[C@H](C)N1C(=O)CCC1(c2ccc(Cl)cc2)c2ccccc2-c2nccn21 (mixture of isomers)
NO

Determine whether this molecule has efflux ratio no lower than 2: N#Cc1ccc(C2(Cc3ccccc3)c3ccccc3-c3nccn32)cc1 (centres undefined)
NO

Determine whether this molecule has efflux ratio no lower than 2: CCN(CC)C(=O)CCC1(c2ccc(Cl)cc2)c2c(OC)cccc2-c2nccn21 (centres undefined)
YES
